Data origin: patent US11395857B2

system: B16F10 mouse melanoma; test: Biodistribution of 177Lu-labeled αMSH analogues in mice bearing B16F10 mouse melanoma; assay type: in vivo, C57BL/6J mice; conditions: 24 h p.i., C57BL/6J mice, B16F10 melanoma
We begin with a simple list: items and their reported Biodistribution, B16F10 tumour.
Readout Type: Biodistribution, B16F10 tumour (% ID/g)

>>> measured_result("CCCC[C@H](NC(=O)CN1CCC(NC(=O)CN2CCN(CC(=O)O)CCN(CC(=O)O)CCN(CC(=O)O)CC2)CC1)C(=O)N[C@H]1CC(=O)NCCCC[C@@H](C(N)=O)N(C)C(=O)[C@H](Cc2c[nH]c3ccccc23)NC(=O)[C@H](CCCNC(=N)N)N(C)C(=O)[C@@H](Cc2ccccc2)NC(=O)[C@H](Cc2c[nH]cn2)NC1=O [^177Lu-labeled CCZ01106, metal not drawn]")
3.45
>>> measured_result("CCCC[C@H](NC(=O)CN1CCC(NC(=O)[C@H](CCCCNC(=O)CN2CCN(CC(=O)O)CCN(CC(=O)O)CCN(CC(=O)O)CC2)NC(=O)[C@H](CCC(=O)O)NC(=O)CCCc2ccc(I)cc2)CC1)C(=O)N[C@H]1CC(=O)NCCCC[C@@H](C(N)=O)N(C)C(=O)[C@H](Cc2c[nH]c3ccccc23)N(C)C(=O)[C@H](CCCNC(=N)N)N(C)C(=O)[C@@H](Cc2ccccc2)NC(=O)[C@H](Cc2c[nH]cn2)N(C)C1=O [^177Lu-labeled CCZ01088, metal not drawn]")
5.50
>>> measured_result("CCCC[C@H](NC(=O)CN1CCC(NC(=O)CN2CCN(CC(=O)O)CCN(CC(=O)O)CCN(CC(=O)O)CC2)CC1)C(=O)N[C@H]1CC(=O)NCCCC[C@@H](C(N)=O)NC(=O)[C@H](Cc2c[nH]c3ccccc23)NC(=O)[C@H](CCCNC(=N)N)NC(=O)[C@@H](Cc2ccccc2)NC(=O)[C@H](Cc2c[nH]cn2)NC1=O [^177Lu-labeled CCZ01048, metal not drawn, reference compound]")
4.39
